Where these numbers come from: patent US8580556B2

Record form. Attribute: relative β-galactosidase activity, inducer Ts. Fill in for each entry.
# System: tetA promoter (PtetA)-lacZ reporter in E. coli KM3
# Assay type: cell-based
# Settings: Table 4; thifensulfuron 20 μg/ml (20 ppm); 48 hrs at 30° C.
No unit in the answer, please; the number alone is enough.

Request: Report relative β-galactosidase activity, inducer Ts for L1-22: library L1 hit, sulfonylurea-responsive TetR(B) variant, SEQ ID NO: 7 (protein, Sulfornylurea responsive repressor L1-22) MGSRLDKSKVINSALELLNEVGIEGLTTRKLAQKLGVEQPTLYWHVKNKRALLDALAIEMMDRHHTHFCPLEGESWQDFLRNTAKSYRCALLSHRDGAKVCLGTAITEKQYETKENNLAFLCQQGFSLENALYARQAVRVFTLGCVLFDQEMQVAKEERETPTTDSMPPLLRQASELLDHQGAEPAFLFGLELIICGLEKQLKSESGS please.
Response: 0.0

Request: Record: L1-31: library L1 hit, sulfonylurea-responsive TetR(B) variant (protein, Sulfonylurea responsive repressor L1-31) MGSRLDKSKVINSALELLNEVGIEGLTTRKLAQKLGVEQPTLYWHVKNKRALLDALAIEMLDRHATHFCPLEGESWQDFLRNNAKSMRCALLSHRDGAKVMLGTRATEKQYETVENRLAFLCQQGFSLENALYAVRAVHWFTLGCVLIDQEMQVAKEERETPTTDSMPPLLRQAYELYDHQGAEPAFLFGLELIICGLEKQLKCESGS
Response: 0.9
